The reported numbers originate from patent US11319322B2.

target: KIF5B-RET-BaF3 (Homo sapiens, UniProt P07949); construct: fused on or other part: P33176 (Kinesin-1 heavy chain); assay: Growth inhibition of KIF5B-RET-BaF3 cells stably transfected with kinase (MTS); format: cell-based; settings: 48 h, read-out: KIF5B-RET (IC50/nM)
Sequence (P07949 whole entry, change not shown, the tested form may be a part): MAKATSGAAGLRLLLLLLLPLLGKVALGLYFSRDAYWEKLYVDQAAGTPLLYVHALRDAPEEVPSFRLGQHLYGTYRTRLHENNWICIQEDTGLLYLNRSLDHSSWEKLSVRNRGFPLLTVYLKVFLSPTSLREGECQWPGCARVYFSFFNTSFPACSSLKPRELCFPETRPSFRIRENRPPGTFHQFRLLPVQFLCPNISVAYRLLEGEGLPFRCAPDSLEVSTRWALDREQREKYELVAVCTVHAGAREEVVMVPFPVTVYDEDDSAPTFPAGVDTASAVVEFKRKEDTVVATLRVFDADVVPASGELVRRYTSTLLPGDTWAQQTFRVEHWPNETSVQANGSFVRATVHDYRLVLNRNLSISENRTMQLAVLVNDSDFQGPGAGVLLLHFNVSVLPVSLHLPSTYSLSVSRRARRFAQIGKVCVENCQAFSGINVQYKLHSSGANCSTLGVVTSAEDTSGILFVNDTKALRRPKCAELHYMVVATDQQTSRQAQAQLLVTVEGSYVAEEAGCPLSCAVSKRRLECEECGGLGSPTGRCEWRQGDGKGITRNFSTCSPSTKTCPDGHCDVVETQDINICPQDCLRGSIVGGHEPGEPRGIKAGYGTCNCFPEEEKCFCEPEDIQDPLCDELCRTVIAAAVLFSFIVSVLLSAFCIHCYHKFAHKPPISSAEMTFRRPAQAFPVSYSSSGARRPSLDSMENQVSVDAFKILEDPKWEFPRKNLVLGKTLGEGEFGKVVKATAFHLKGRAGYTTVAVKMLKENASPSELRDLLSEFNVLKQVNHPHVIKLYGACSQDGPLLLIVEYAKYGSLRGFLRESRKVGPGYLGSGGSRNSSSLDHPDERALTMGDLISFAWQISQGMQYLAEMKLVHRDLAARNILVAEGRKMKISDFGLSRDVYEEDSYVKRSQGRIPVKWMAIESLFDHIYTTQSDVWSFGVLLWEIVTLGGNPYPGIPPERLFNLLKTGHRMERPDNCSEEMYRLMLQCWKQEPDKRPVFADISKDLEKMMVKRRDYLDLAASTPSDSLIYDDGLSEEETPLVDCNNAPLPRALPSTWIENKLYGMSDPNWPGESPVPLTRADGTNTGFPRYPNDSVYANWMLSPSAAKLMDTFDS
experimental-endpoint: GI50 (nM)
Reply with just the number (in nM).

Measured GI50, `Cc1ccc(Oc2cc(-c3cn[nH]c3)nc3[nH]ccc23)cc1C(=O)Nc1ccc(CN2CCN(C)CC2)c(C(F)(F)F)c1` : 673

Measured GI50 of `Cc1ccc(C(=O)Nc2ccc(CN3CCN(C)CC3)c(C(F)(F)F)c2)cc1Oc1nc(-c2cccc(Cl)c2)nc2c1cnn2C` : 320

Given item `CN1CCN(Cc2ccc(NC(=O)c3cc(Oc4nc(-c5ccncc5)nc5ccn(C)c45)ccc3-c3ccncc3)cc2C(F)(F)F)CC1` , the value recorded as its GI50 is 835

get_value(item= `Cc1ccc(C(=O)Nc2ccc(CN3CCN(C)CC3)c(C(F)(F)F)c2)cc1Oc1nc(N2CCN(C)CC2)nc2ccn(C)c12` , readout=GI50) returns 477

// sample `CN1CCN(Cc2ccc(NC(=O)c3cc(Oc4nc(-c5ccc(O)cc5)nc5c4ncn5C)ccc3Cl)cc2C(F)(F)F)CC1` , its GI50 was 1210

So for `CN1CCN(Cc2ccc(C(=O)Nc3cc(Oc4nc(-c5cccnc5)nc5cc[nH]c45)ccc3Cl)cc2C(F)(F)F)CC1` , the logged GI50 turned out to be 1320

Per the records, this molecule ( `Cc1ccc(C(=O)Nc2cc(CN3CCN(C)CC3)cc(C(F)(F)F)c2)cc1Oc1nc(-c2cccnc2)nc2ccn(C)c12` ) has GI50 equal to 1400

Recorded result, `Cc1ccc(C(=O)Nc2ccc(CN3CCN(C)CC3)c(C(F)(F)F)c2)cc1Oc1nc(-c2cccc(Cl)c2)nc2ccn(C)c12` , GI50: 3000

Form field GI50, entry `Cc1ccc(Oc2nc(-c3ccc(Cl)cc3)nc3cc[nH]c23)cc1NC(=O)c1ccc(CN2CCN(C)CC2)c(C(F)(F)F)c1` : 1570

Form: molecule = `Cc1ccc(Oc2nc(-c3cccnc3)nc3ccsc23)cc1C(=O)Nc1ccc(CN2CCN(C)CC2)c(C(F)(F)F)c1` ; GI50 = 2840

So for `CN1CCN(Cc2ccc(C(=O)Nc3cc(Oc4nc(-c5ccoc5)nc5cc[nH]c45)ccc3Cl)cc2C(F)(F)F)CC1` , the logged GI50 turned out to be 1920

// `CN1CCN(Cc2ccc(C(=O)Nc3cccc(Oc4nc(-c5cccnc5)nc5cc[nH]c45)c3)cc2C(F)(F)F)CC1` : GI50 value = 1540

// recorded GI50 for `Cc1ccc(Oc2nc(-c3ccoc3)nc3cc[nH]c23)cc1NC(=O)c1ccc(CN2CCN(C)CC2)c(C(F)(F)F)c1` : 464

Reported GI50 ( `Cc1ccc(Oc2nc(-c3ccc(Cl)cc3)nc3ccn(C)c23)cc1NC(=O)c1ccc(CN2CCN(C)CC2)c(C(F)(F)F)c1` ) = 2970

###

Target: CCDC6-RET-BaF3 (Homo sapiens, UniProt P07949)
Construct: fused on or other part: Q16204 (Coiled-coil domain-containing protein 6)
Sequence (P07949 whole entry, change not shown, the tested form may be a part): as above
Test: Growth inhibition of CCDC6-RET-BaF3 cells stably transfected with kinase (MTS)
Assay type: cell-based
Conditions: 48 h, read-out: CCDC6-RET (IC50/nM)
Description: Growth inhibitory activity of compounds on cell lines stably transfected with kinase The activity of compounds against kinase RET is evaluated by their effect of inhibiting growth of cell lines stably transfected with kinase CCDC6-RET-BaF3, KIF5B-RET-BaF3, and wild-type BaF3 (Proc. Natl. Acad. Sci. USA., 2006, 103, 3153-8.). The growth of the cell lines stably transfected with kinase CCDC6-RET-BaF3, KIF5B-RET-BaF3 depends on their kinase activity. […]
Exercise: state measured log10 of GI50 for each of the compounds provided.
Remember, log10 of GI50, in nM.

Please fill in: log10 of GI50 reported for `CN1CCN(Cc2cc(NC(=O)c3cccc(Oc4nc(-c5cccnc5)nc5cc[nH]c45)c3)cc(C(F)(F)F)c2)CC1` = 3.64

For `Cc1ccc(Oc2nc(-c3ccc(O)cc3)nc3c2ncn3C)cc1NC(=O)c1ccc(CN2CCN(C)CC2)c(C(F)(F)F)c1` the compound record lists log10 of GI50 as 3.00

For this compound ( `CN1CCN(Cc2ccc(NC(=O)c3cccc(Oc4nc(-c5ccncc5)nc5cc[nH]c45)c3)cc2C(F)(F)F)CC1` ), measured log10 of GI50 is 1.36

The value of log10 of GI50 measured for the compound `Cc1ccc(C(=O)Nc2ccc(CN3CCN(C)CC3)c(C(F)(F)F)c2)cc1Oc1nc(Nc2ccccc2)nc2c1cnn2C` turned out to be 2.09

Briefly, log10 of GI50 measured for `CN1CCN(Cc2ccc(NC(=O)c3cccc(Oc4nc(-c5cccnc5)nc5ccn(C)c45)c3)cc2C(F)(F)F)CC1` : 3.15

// recorded log10 of GI50 for `Cc1ccc(Oc2nc(-c3ccoc3)nc3ccn(C)c23)cc1NC(=O)c1ccc(CN2CCN(C)CC2)c(C(F)(F)F)c1` : 2.37

###

target: CCDC6-RET-BaF3 (Homo sapiens, UniProt P07949); construct: fused on or other part: Q16204 (Coiled-coil domain-containing protein 6); assay: Growth inhibition of CCDC6-RET-BaF3 cells stably transfected with kinase (MTS); format: cell-based; settings: 48 h, read-out: CCDC6-RET (IC50/nM)
For each entry below, report its log10 GI50 value.
Recorded GI50 (log10, nM)

Recorded log10 GI50 for `Cn1cnc2c(Oc3cccc(C(=O)Nc4cccc(C(F)(F)F)c4)c3)nc(-c3ccncc3)nc21` on CCDC6-RET-BaF3 (Homo sapiens, UniProt P07949) was 3.19

Log: CCDC6-RET-BaF3 (Homo sapiens, UniProt P07949), compound `Cc1ccc(Oc2nc(-c3ccncc3)nc3nn(C)cc23)cc1C(=O)Nc1ccc(CN2CCN(C)CC2)c(C(F)(F)F)c1` , log10 GI50 = 2.24

For `Cc1ccc(C(=O)Nc2ccc(CN3CCN(C)CC3)c(C(F)(F)F)c2)cc1Oc1nc(-c2cccnc2)nc2c1cnn2C` on CCDC6-RET-BaF3 (Homo sapiens, UniProt P07949), measured log10 GI50 was 1.55

CCDC6-RET-BaF3 (Homo sapiens, UniProt P07949) log10 GI50 of `Cc1ccc(NC(=O)c2ccc(CN3CCN(C)CC3)c(C(F)(F)F)c2)cc1Oc1nc(-c2cccnc2)nc2ccn(C)c12` is 3.64

Observed log10 GI50 on CCDC6-RET-BaF3 (Homo sapiens, UniProt P07949), entry `CC(=O)NCC1CCN(c2ccc(NC(=O)c3ccc(C)c(Oc4nc(-c5cccnc5)nc5c4cnn5C)c3)cc2C(F)(F)F)CC1` , equals 2.69

For `CN1CCN(Cc2ccc(NC(=O)c3cccc(Oc4cc(-c5ccncc5)nc5[nH]ccc45)c3)cc2C(F)(F)F)CC1` on CCDC6-RET-BaF3 (Homo sapiens, UniProt P07949), measured log10 GI50 was 2.23

Noted log10 GI50 for `CN1CCN(Cc2ccc(NC(=O)c3cc(Oc4nc(-c5ccc(Cl)cc5)nc5nn(C)cc45)ccc3Cl)cc2C(F)(F)F)CC1` , tested on CCDC6-RET-BaF3 (Homo sapiens, UniProt P07949): 3.61

###

Target: CCDC6-RET-BaF3 (Homo sapiens, UniProt P07949)
Construct: fused on or other part: Q16204 (Coiled-coil domain-containing protein 6)
Experiment: Growth inhibition of CCDC6-RET-BaF3 cells stably transfected with kinase (MTS)
Type: cell-based
Details: 48 h, read-out: CCDC6-RET (IC50/nM)
Experimental: Growth inhibitory activity of compounds on cell lines stably transfected with kinase The activity of compounds against kinase RET is evaluated by their effect of inhibiting growth of cell lines stably transfected with kinase CCDC6-RET-BaF3, KIF5B-RET-BaF3, and wild-type BaF3 (Proc. Natl. Acad. Sci. USA., 2006, 103, 3153-8.). The growth of the cell lines stably transfected with kinase CCDC6-RET-BaF3, KIF5B-RET-BaF3 depends on their kinase activity. […]
The label is criterion met for GI50 below 500 nM and criterion not met for GI50 equal to or exceeding 500 nM.

Prompt line: API: query returns whether the compound falls strictly under 500 nM in GI50. Query: CC(=O)NCC1CCN(c2ccc(NC(=O)c3ccc(C)c(Oc4nc(-c5ccncc5)nc5c4cnn5C)c3)cc2C(F)(F)F)CC1 [II-v-11]
Response line: criterion not met

Prompt line: # TODO verify GI50 < 500 nM strictly for this compound: Cc1ccc(NC(=O)c2ccc(CN3CCN(C)CC3)c(C(F)(F)F)c2)cc1Oc1nc(-c2cccnc2)nc2c1cnn2C [II-i-1]
Response line: criterion met

Prompt line: Problem: For the compound Cc1ccc(Oc2nc(-c3ccncc3)nc3c2ncn3C)cc1C(=O)Nc1ccc(CN2CCN(C)CC2)c(C(F)(F)F)c1 [I-n-3] , is GI50 under 500 nM?
Response line: criterion met

Prompt line: For CC(C)n1cnc2c(Oc3ccc(Cl)c(C(=O)Nc4ccc(CN5CCN(C)CC5)c(C(F)(F)F)c4)c3)nc(-c3ccncc3)nc21 [I-o-12] , is the recorded GI50 below the cut-off of 500 nM?
Response line: criterion met

Prompt line: Input CC(C)n1cnc2c(Oc3cccc(NC(=O)c4ccc(CN5CCN(C)CC5)c(C(F)(F)F)c4)c3)nc(-c3ccncc3)nc21 [I-h-1] ; condition: GI50 strictly below 500 nM. Does it hold?
Response line: criterion not met

Prompt line: Is the reported GI50 for Cc1ccc(Oc2nc(-c3ccsc3)nc3nn(C)cc23)cc1C(=O)Nc1ccc(CN2CCN(C)CC2)c(C(F)(F)F)c1 [IV-n-11] strictly below 500 nM?
Response line: criterion not met

Prompt line: # check: GI50 < 500 nM for Cc1ccc(Oc2nc(-c3ccc(N)cc3)nc3cc[nH]c23)cc1NC(=O)c1ccc(CN2CCN(C)CC2)c(C(F)(F)F)c1 [III-j-15]
Response line: criterion not met
